Target Of Assay: sGC α1/β1 heterodimer (Homo sapiens, UniProt Q02108+Q02153)
Construct: expressed in transfected cells; host or cells: CHO-K1 (clone #7, CHO-K1/sGC)
Sequence (Q02108 1-690): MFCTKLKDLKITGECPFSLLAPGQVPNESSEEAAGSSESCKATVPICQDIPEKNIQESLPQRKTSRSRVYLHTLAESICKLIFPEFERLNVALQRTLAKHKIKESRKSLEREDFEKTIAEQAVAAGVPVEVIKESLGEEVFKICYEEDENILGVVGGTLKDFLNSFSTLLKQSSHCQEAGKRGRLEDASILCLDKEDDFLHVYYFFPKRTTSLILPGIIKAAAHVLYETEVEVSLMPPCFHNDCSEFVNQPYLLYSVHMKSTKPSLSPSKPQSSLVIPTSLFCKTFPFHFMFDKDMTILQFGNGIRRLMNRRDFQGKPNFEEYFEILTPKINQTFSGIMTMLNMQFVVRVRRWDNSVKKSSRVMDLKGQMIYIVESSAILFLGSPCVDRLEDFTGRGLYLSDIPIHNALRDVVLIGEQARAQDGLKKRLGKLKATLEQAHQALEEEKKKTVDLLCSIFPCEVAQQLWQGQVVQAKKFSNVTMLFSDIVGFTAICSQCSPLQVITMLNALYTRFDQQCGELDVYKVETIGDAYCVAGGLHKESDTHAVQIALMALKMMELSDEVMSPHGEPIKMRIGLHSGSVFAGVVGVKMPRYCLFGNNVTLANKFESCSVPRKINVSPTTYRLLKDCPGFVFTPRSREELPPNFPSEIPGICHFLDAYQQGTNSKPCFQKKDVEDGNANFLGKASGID
Sequence (Q02153 1-619): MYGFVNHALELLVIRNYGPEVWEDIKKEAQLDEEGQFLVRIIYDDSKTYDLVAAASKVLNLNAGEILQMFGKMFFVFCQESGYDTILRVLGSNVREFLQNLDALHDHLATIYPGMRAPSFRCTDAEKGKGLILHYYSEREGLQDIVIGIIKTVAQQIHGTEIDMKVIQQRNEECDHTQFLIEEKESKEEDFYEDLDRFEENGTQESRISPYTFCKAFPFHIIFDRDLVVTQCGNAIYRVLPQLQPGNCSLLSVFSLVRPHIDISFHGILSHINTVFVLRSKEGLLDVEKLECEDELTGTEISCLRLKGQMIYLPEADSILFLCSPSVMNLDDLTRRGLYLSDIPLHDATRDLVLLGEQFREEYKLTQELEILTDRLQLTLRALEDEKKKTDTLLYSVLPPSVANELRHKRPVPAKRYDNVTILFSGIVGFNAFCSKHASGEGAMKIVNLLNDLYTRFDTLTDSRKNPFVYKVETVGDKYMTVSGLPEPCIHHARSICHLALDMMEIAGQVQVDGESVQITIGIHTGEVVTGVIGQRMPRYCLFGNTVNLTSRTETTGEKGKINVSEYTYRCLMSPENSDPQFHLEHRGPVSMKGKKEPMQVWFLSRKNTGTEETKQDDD
Experimental Protocol: Cell-Based sGC Functional Assay (CASA Assay), cGMP by HTRF in CHO-K1/sGC cells
Run Conditions: cGMP production, 1 hr at 37° C., 4P fit, presence or absence of 1 μM DETA-NO not given, read-out: IP (nM) (inflection point)
Endpoint Name: EC50 (nM)

Please review the following examples before continuing.
Query: Answer briefly: EC50 recorded on sGC α1/β1 heterodimer (Homo sapiens, UniProt Q02108+Q02153) for O=C1Nc2nc(-c3cn4ccnc4c(CCCC(F)(F)F)n3)nc(O)c2C1(c1ccc(Cl)cc1F)C1CC1 (stereo not shown) [Example 34A]
Response: 102

Query: Fetch value of EC50 on sGC α1/β1 heterodimer (Homo sapiens, UniProt Q02108+Q02153) for O=C1Nc2nc(-c3cn4ccnc4c(CCC(F)(F)C(F)(F)F)n3)nc(O)c2C1(c1ccc(F)cc1)C1CC1 (stereo not shown) [Example 12B] .
Response: 525

I = O=C1Nc2nc(-c3cn4ccnc4c(CCCC(F)(F)F)n3)nc(O)c2C1(c1ccc(Cl)c(F)c1)C1CC1 (stereo not shown) [Example 22A]
II = O=C1Nc2nc(-c3cn4ccnc4c(CCCC(F)(F)F)n3)ncc2C1(c1ccc(F)cc1)C1CC1 (stereo not shown) [Example 60B]
III = CC1(c2ccc(Cl)cc2)C(=O)Nc2nc(-c3cn4ccnc4c(OCCC4CC4)n3)nc(O)c21 (stereo not shown) [Example 94A]
IV = CC1(c2ccc(Cl)cn2)C(=O)Nc2nc(-c3cn4ccnc4c(CCCC(F)(F)F)n3)nc(O)c21 (stereo not shown) [Example 28A]
V = CCCCc1nc(-c2ncc3c(n2)NC(=O)C3(c2ccc(Cl)cc2F)C2CC2)cn2ccnc12 (stereo not shown) [Example 45A]
Query: Given 5 compounds, produce a descending ranking by EC50. Give the labels in the order specified.
Response: I, IV, III, II, V
